Form field: inhibition (one value per entry).
target: Protein AF-9 (Homo sapiens) (UniProt P42568); assay: MLL-AF4/AF9 protein interaction blockers – biochemical, AlphaScreen, biotin-AF4 peptide, FLAG-AF9, single point, primary screen (AID 651704); conditions: biotin-AF4 peptide binding to FLAG-AF9, at 10 µM, stronger effect = higher value;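 also: 0% = plate neutral control median and 100% = total signal loss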
Sequence (P42568 whole entry, looked up): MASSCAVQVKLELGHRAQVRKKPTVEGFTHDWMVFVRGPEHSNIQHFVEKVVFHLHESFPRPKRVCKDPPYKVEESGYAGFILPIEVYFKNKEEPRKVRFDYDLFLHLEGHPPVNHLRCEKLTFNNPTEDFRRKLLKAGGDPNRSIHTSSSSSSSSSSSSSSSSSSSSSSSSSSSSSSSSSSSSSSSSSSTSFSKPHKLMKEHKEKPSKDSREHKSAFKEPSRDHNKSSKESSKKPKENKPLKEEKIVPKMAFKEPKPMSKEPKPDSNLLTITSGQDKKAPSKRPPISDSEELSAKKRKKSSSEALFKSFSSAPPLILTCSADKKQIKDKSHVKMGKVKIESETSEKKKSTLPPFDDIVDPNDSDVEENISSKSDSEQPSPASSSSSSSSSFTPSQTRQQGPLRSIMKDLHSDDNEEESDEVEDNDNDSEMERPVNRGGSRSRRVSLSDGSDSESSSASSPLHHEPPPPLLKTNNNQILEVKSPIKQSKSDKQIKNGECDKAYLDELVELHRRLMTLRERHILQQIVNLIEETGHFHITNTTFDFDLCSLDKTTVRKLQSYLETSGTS
Hit rate of the full screen: of about 350,000 compounds, about 1,600 (0.46%) were called active. The sample holds actives, similar compounds and a random draw of the others, so the mix is not that of the screen.

Compound	Reported
COc1cccc(S(=O)(=O)Nc2ccc3c(c2)[C@H]2C[C@H](CC(=O)N4CCCCC4)O[C@@H](CO)[C@H]2O3)c1	0.52% (inactive)
O=C(Nc1nnc(SCc2ccccc2Cl)s1)c1cccc([N+](=O)[O-])c1	48% (active)
COc1ccc(-c2ccc3[nH]c4c(c3c2)CCN2C[C@H]3[C@H](C)ON(C)[C@H]3C[C@@H]42)cc1	27.4% (active)
COc1cc(/C=C/C(=O)OCC(=O)c2ccccc2)cc(OC)c1OC	4.16% (inactive)
Cc1ccc2c(c1)C1CN(C)CCC1N2C(=S)Nc1ccc(OC(F)F)cc1 (stereo not drawn)	5.25% (inactive)

Cc1ccc2c(c1)C1CN(C)CCC1N2S(=O)(=O)c1cccc(F)c1 (stereo not drawn) has a reported inhibition of 4.04% (inactive)

# inhibition (compound: C#CCOCCOCCOCCNc1nc(N2CCN(C(=O)[C@H](CCC(=O)O)n3cc(C(N)CO)nn3)CC2)nc(N2CCN(C(=O)[C@H](Cc3ccc(O)cc3)n3cc(C(N)[C@H](C)CC)nn3)CC2)n1 (stereo partly drawn) ) is 2.1% (inactive)

compound NC(=O)CSc1nnc(NC(=O)c2ccc3ccccc3c2)s1 , inhibition observed: -1.88% (inactive)
